Molecular target: T1, TNFR1 (Homo sapiens, UniProt P19438)
T1 chain: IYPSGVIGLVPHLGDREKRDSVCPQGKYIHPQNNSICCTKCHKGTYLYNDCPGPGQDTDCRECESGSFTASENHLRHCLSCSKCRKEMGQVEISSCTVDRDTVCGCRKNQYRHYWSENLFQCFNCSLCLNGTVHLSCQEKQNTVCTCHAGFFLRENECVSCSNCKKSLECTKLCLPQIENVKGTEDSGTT
Test: yeast display SC50
parameter: apparent Kd (screen) (nM)

Known results for binders:
[[record]]
binder = "A106I (designed binder) SMEEEVEKAAKEYEKKKKEAIEKHLEKLKAKDKEAAERFLKELEEAAKEYAKDEAKTMSEEEAKRRAKKYKEKVLLSELSEEEQKEIKEAEEKLVRTILKYVEEAIK"
measurement_units = "nM"
experimental_value = 5.84

[[record]]
binder = "K88V (designed binder) SMEEEVEKAAKEYEKKKKEAIEKHLEKLKAKDKEAAERFLKELEEAAKEYAKDEAKTMSEEEAKRRAKKYKEKVLLSELSEEEQKEIVEAEEKLVRTILKYVEEAAK"
measurement_units = "nM"
experimental_value = 0.79

[[record]]
binder = "L28Q (designed binder) SMEEEVEKAAKEYEKKKKEAIEKHLEKQKAKDKEAAERFLKELEEAAKEYAKDEAKTMSEEEAKRRAKKYKEKVLLSELSEEEQKEIKEAEEKLVRTILKYVEEAAK"
measurement_units = "nM"
experimental_value = 0.539


1: Y70F (designed binder) SMEEEVEKAAKEYEKKKKEAIEKHLEKLKAKDKEAAERFLKELEEAAKEYAKDEAKTMSEEEAKRRAKKFKEKVLLSELSEEEQKEIKEAEEKLVRTILKYVEEAAK
2: E89M (designed binder) SMEEEVEKAAKEYEKKKKEAIEKHLEKLKAKDKEAAERFLKELEEAAKEYAKDEAKTMSEEEAKRRAKKYKEKVLLSELSEEEQKEIKMAEEKLVRTILKYVEEAAK
Please compare: 1 and 2 . Report which one has the smaller apparent Kd (screen) value. Identify your pick by its label.
2
(2: 1.05 nM, 1: 12.5 nM)

I: E42D (designed binder) SMEEEVEKAAKEYEKKKKEAIEKHLEKLKAKDKEAAERFLKDLEEAAKEYAKDEAKTMSEEEAKRRAKKYKEKVLLSELSEEEQKEIKEAEEKLVRTILKYVEEAAK
II: L28E (designed binder) SMEEEVEKAAKEYEKKKKEAIEKHLEKEKAKDKEAAERFLKELEEAAKEYAKDEAKTMSEEEAKRRAKKYKEKVLLSELSEEEQKEIKEAEEKLVRTILKYVEEAAK
// max by apparent Kd (screen) over [ I , II ] Identify your pick by its label.
I

P: A36H (designed binder) SMEEEVEKAAKEYEKKKKEAIEKHLEKLKAKDKEAHERFLKELEEAAKEYAKDEAKTMSEEEAKRRAKKYKEKVLLSELSEEEQKEIKEAEEKLVRTILKYVEEAAK
Q: H24F (designed binder) SMEEEVEKAAKEYEKKKKEAIEKFLEKLKAKDKEAAERFLKELEEAAKEYAKDEAKTMSEEEAKRRAKKYKEKVLLSELSEEEQKEIKEAEEKLVRTILKYVEEAAK
R: V95A (designed binder) SMEEEVEKAAKEYEKKKKEAIEKHLEKLKAKDKEAAERFLKELEEAAKEYAKDEAKTMSEEEAKRRAKKYKEKVLLSELSEEEQKEIKEAEEKLARTILKYVEEAAK
Parameters: sort_field (apparent Kd (screen)), sort_dir (desc). Reply: labels, ordered per the request.
R, Q, P
